Please go through the items and note down their pIC50.
# Tgt: Epidermal growth factor receptor (Homo sapiens, UniProt P00533)
# Sequence (P00533 whole entry, the tested form may be a part): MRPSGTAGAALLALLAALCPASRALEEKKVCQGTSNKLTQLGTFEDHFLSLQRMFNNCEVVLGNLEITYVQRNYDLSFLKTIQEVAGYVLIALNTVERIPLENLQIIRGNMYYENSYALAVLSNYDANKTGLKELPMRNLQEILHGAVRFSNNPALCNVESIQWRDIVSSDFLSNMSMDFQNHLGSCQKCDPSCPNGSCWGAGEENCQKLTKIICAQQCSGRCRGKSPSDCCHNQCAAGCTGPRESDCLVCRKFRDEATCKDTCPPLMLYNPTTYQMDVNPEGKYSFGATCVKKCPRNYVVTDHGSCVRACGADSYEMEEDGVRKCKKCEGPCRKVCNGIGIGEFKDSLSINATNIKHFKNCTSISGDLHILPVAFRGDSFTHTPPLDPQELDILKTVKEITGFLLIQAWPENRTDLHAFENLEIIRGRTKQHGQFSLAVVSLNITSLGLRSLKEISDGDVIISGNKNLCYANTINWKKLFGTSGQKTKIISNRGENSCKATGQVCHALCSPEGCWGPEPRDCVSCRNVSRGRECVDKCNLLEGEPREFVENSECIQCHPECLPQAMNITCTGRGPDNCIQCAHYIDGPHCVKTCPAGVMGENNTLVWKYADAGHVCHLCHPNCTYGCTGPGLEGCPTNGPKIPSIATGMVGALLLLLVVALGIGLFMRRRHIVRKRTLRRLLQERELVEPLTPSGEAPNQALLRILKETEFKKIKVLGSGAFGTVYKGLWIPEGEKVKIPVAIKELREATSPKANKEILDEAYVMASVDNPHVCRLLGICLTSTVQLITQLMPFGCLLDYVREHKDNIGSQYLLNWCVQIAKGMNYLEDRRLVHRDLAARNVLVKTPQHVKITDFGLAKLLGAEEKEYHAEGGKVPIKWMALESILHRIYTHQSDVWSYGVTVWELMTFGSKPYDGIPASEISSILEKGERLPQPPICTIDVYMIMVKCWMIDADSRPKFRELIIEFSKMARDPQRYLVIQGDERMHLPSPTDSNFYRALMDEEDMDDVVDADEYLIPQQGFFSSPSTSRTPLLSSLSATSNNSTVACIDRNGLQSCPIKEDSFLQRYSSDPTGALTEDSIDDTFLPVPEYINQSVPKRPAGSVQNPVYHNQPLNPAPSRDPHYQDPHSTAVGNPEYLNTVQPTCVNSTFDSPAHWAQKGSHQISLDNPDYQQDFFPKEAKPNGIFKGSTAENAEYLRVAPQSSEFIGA
# Assay text: Inhibition of N-terminal 6x-HIS-tagged wild type human recombinant EGFR (696 to 1022 residues) expressed in Sf9 cells pre-incubated for 90 mins followed by 10 uM ATP addition by HTRF assay
pIC50: −log10 of the molar value.

Illustrative cases are given below, each with its answer.
Cc1ccc2c(c1)nc(NC(=O)c1cccc(C(F)(F)F)c1)n2[C@H]1CC[C@H](O)CC1	< 4.93
CCOCc1ccc2c(c1)nc(NC(=O)c1cccc(C(F)(F)F)c1)n2[C@H]1CC[C@H](O)CC1	< 4.38

For each entry beneath this line, provide reported pIC50.
1. O=C(Nc1nc2ccccc2n1[C@H]1CC[C@H](O)CC1)c1cccc(C(F)(F)F)c1
2. Cc1cccc2c1nc(NC(=O)c1cccc(C(F)(F)F)c1)n2[C@H]1CC[C@H](O)CC1
3. Cc1cccc2nc(NC(=O)c3cccc(C(F)(F)F)c3)n([C@H]3CC[C@H](O)CC3)c12

Outgoing:
1. < 4.30
2. < 4.30
3. 5.28

----------
# Assay text: Volume of distribution at steady state in balb/c mouse at 5 mg/kg, iv by liquid chromatography-tandem mass spectrometry
# Type: ADME, organism-based
# Condition set: in vivo, read-out: Vdss
Readout label: Vd (L/kg)
Answers are plain numbers, in L/kg.

Incoming: Look up Vd: Cc1cc(C(=O)Nc2nc3cccc(Cl)c3n2[C@@H]2CCCCN(C(=O)/C=C/CN(C)C)C2)ccn1 [NAZARTINIB]
Outgoing: 2.8

----------
# Assay text: Tmax in dog at 10 mg/kg, po by liquid chromatography-tandem mass spectrometry
# Format: ADME, organism-based, Canis lupus familiaris
# Condition set: in vivo
Readout label: Tmax (h)
Numbers only, in h.

Incoming: Look up Tmax: "Cc1cc(C(=O)Nc2nc3cccc(Cl)c3n2[C@@H]2CCCCN(C(=O)/C=C/CN(C)C)C2)ccn1.Cl"
Outgoing: 2.3

----------
# Assay text: AUC in dog at 1 mg/kg, iv by liquid chromatography-tandem mass spectrometry
# Type: ADME, organism-based, Canis lupus familiaris
# Condition set: in vivo
Readout label: AUC (µM·h)
One number for each entry, in µM·h.

Incoming: Look up AUC: "Cc1cc(C(=O)Nc2nc3cccc(Cl)c3n2[C@@H]2CCCCN(C(=O)/C=C/CN(C)C)C2)ccn1.Cl"
Outgoing: 0.783

----------
# Assay text: Aqueous solubility of the compound at pH 6.8
# Assay type: physicochemical
Readout label: solubility (µM)
Answers are plain numbers, in µM.

Cc1cccc2nc(NC(=O)c3ccnc(C(F)(F)F)c3)n([C@@H]3CCCCN(C(=O)/C=C/CN(C)C)C3)c12	12.7

Could you now consider this next compound?
Incoming: Look up solubility: "Cc1cccc2nc(NC(=O)c3cccc(C(F)(F)F)c3)n([C@@H]3CCCCN(C(=O)/C=C/CN(C)C)C3)c12"
Outgoing: 10.5

----------
# Assay text: AUC in Wistar rat at 10 mg/kg, po by liquid chromatography-tandem mass spectrometry
# Assay type: ADME, organism-based
# Condition set: in vivo
Readout label: AUC (µM·h)
Numbers only, in µM·h.

Incoming: Look up AUC: Cc1cc(C(=O)Nc2nc3cccc(Cl)c3n2[C@@H]2CCCCN(C(=O)/C=C/CN(C)C)C2)ccn1 [NAZARTINIB]
Outgoing: 12

----------
# Assay text: Cmax in dog at 10 mg/kg, po by liquid chromatography-tandem mass spectrometry
# Type: ADME, organism-based, Canis lupus familiaris
# Design: dose 10 mg/kg, route oral
# Condition set: in vivo
Readout label: Cmax (nM)
Give bare numbers, in nM.

Incoming: Look up Cmax: "Cc1cc(C(=O)Nc2nc3cccc(Cl)c3n2[C@@H]2CCCCN(C(=O)/C=C/CN(C)C)C2)ccn1.Cl"
Outgoing: 435

----------
# Assay text: AUC in balb/c mouse at 5 mg/kg, iv by liquid chromatography-tandem mass spectrometry
# Type: ADME, organism-based
# Condition set: in vivo
Readout label: AUC (µM·h)
One number for each entry, in µM·h.

Incoming: Look up AUC: Cc1cc(C(=O)Nc2nc3cccc(Cl)c3n2[C@@H]2CCCCN(C(=O)/C=C/CN(C)C)C2)ccn1 [NAZARTINIB]
Outgoing: 5.34

----------
Endpoint: IC50. System: Cytochrome P450 3A4 (Homo sapiens). Items follow.
Sequence (P08684 whole entry): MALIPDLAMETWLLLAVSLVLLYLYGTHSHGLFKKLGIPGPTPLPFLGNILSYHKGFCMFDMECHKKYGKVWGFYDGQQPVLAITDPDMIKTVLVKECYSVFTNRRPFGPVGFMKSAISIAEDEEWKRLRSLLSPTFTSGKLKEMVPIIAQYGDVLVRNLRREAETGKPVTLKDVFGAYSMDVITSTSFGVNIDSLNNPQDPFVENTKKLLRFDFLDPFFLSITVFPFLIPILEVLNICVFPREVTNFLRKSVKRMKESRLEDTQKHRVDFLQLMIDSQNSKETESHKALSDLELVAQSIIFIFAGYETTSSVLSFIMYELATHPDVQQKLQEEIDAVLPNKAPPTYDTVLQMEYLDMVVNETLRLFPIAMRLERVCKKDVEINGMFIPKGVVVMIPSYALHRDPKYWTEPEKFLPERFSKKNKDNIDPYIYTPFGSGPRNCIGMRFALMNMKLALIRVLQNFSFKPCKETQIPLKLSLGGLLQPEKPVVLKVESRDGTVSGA

For each entry beneath this line, provide reported IC50.
1. Cc1cccc2nc(NC(=O)c3cccc(C(F)(F)F)c3)n([C@@H]3CCCCN(C(=O)/C=C/CN(C)C)C3)c12
2. Cc1cccc2nc(NC(=O)c3ccnc(C(F)(F)F)c3)n([C@@H]3CCCCN(C(=O)/C=C/CN(C)C)C3)c12
3. Cc1cc(C(=O)Nc2nc3cccc(Cl)c3n2[C@@H]2CCCCN(C(=O)/C=C/CN(C)C)C2)ccn1 [NAZARTINIB]

Outgoing:
["22.2 µM", "> 25 µM", "> 25 µM"]

----------
# Tgt: Epidermal growth factor receptor (Homo sapiens, UniProt P00533, L858R/T790M)
# Sequence (P00533 25-1210 T790M/L858R limits assumed): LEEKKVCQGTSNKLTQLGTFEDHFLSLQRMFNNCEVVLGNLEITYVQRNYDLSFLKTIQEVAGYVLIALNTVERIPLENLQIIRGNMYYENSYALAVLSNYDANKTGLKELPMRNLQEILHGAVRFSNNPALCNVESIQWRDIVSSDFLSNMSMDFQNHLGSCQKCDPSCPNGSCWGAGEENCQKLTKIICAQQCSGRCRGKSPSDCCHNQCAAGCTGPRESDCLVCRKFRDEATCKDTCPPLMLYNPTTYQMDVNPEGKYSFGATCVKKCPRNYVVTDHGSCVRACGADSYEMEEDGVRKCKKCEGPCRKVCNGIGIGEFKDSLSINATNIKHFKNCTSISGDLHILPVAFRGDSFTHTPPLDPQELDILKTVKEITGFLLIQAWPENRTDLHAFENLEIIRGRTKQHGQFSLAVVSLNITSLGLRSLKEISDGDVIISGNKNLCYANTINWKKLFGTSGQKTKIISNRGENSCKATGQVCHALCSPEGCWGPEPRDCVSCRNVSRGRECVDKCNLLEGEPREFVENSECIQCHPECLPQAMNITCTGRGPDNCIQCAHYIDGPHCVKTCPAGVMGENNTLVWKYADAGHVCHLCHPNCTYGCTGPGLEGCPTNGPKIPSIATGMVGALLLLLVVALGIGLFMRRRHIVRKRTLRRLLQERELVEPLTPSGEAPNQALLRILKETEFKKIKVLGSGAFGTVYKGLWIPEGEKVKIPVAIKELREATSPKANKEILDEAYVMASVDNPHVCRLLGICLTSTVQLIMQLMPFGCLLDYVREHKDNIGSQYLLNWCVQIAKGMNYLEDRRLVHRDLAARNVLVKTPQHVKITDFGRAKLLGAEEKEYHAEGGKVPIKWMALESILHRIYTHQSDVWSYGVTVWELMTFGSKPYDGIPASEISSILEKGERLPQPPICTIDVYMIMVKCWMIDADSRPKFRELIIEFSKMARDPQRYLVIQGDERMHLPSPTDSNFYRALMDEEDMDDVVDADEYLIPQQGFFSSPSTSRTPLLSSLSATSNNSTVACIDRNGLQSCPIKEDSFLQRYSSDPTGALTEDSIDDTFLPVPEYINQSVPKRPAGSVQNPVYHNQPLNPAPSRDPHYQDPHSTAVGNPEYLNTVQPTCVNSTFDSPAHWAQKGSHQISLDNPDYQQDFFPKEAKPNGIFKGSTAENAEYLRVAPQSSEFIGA
# Assay text: Inhibition of N-terminal 6x-HIS-tagged human recombinant EGFR (696 to 1022 residues) L858R/T790M mutant expressed in Sf9 cells pre-incubated for 90 mins followed by 1 mM ATP addition by HTRF assay
Please go through the items and note down their pIC50.
Numbers only, as −log10 of the molar value.

C=CC(=O)NCCCn1c(NC(=O)c2cccc(C(F)(F)F)c2)nc2cc(C)ccc21	7.30

For each entry beneath this line, provide reported pIC50.
1. C=CC(=O)NC1CCC(n2c(NC(=O)c3cccc(C(F)(F)F)c3)nc3cc(C)ccc32)C1 (centres undefined)
2. C=CC(=O)N[C@@H]1CCC[C@@H](n2c(NC(=O)c3cccc(C(F)(F)F)c3)nc3cc(C)ccc32)C1 (racemic)
3. C=CC(=O)N[C@H]1CCC[C@@H](n2c(NC(=O)c3cccc(C(F)(F)F)c3)nc3cc(C)ccc32)C1 (racemic)

Outgoing:
1: 5.17; 2: 7.22; 3: 8.40

For each entry beneath this line, provide reported pIC50.
1. C=CC(=O)Nc1cccc(-n2c(NC(=O)c3cccc(C(F)(F)F)c3)nc3cc(C)ccc32)c1
2. C=CC(=O)N(C)c1cccc(-n2c(NC(=O)c3cccc(C(F)(F)F)c3)nc3cc(C)ccc32)c1
3. C=CC(=O)N1CCC(n2c(NC(=O)c3cccc(C(F)(F)F)c3)nc3cc(C)ccc32)CC1
4. C=CC(=O)N1CCCC(n2c(NC(=O)c3cccc(C(F)(F)F)c3)nc3cc(C)ccc32)C1 (centres undefined)

Outgoing:
8.40
8.00
4.78
7.70

----------
# Assay text: Tmax in balb/c mouse at 20 mg/kg, po by liquid chromatography-tandem mass spectrometry
# Assay type: ADME, organism-based
# Condition set: in vivo
Readout label: Tmax (min)
Give bare numbers, in min.

Incoming: Look up Tmax: "Cc1cc(C(=O)Nc2nc3cccc(Cl)c3n2[C@@H]2CCCCN(C(=O)/C=C/CN(C)C)C2)ccn1"
Outgoing: 49.8

----------
# Assay text: Oral bioavailability in balb/c mouse at 20 mg/kg by liquid chromatography-tandem mass spectrometry
# Type: ADME, organism-based
# Condition set: in vivo
Threshold check on bioavailability: at or above 30% gives satisfied, strictly below gives not satisfied.

Example results:
C=CC(=O)N1CCCC[C@@H](n2c(NC(=O)c3cccc(C(F)(F)F)c3)nc3cccc(C)c32)C1	not satisfied
Cc1cc(C(=O)Nc2nc3cccc(Cl)c3n2[C@@H]2CCCCN(C(=O)/C=C/CN(C)C)C2)ccn1	satisfied
Cc1cccc2nc(NC(=O)c3cccc(C(F)(F)F)c3)n([C@@H]3CCCCN(C(=O)/C=C/CN(C)C)C3)c12	satisfied
Cc1cc(C(=O)Nc2nc3cccc(C)c3n2[C@@H]2CCCCN(C(=O)/C=C/CN(C)C)C2)ccn1	satisfied

# input for lookup
Incoming: Evaluate "Cc1cccc2nc(NC(=O)c3ccnc(C(F)(F)F)c3)n([C@@H]3CCCCN(C(=O)/C=C/CN(C)C)C3)c12" : bioavailability at minimum 30%?
Outgoing: not satisfied

----------
Please go through the items and note down their pIC50.
# Tgt: Epidermal growth factor receptor (Homo sapiens, UniProt P00533, L858R/T790M)
# Assay text: Inhibition of EGFR L858R/T790M mutant (unknown origin) phosphorylation expressed in mouse NIH/3T3 cells incubated for 3 hrs by ELISA method
# Assay type: cell-based
Numbers only, as −log10 of the molar value.

For each entry beneath this line, provide reported pIC50.
1. C=CC(=O)N[C@@H]1CCC[C@@H](n2c(NC(=O)c3cccc(C(F)(F)F)c3)nc3cc(C)ccc32)C1 (racemic)
2. C=CC(=O)N[C@H]1CCC[C@@H](n2c(NC(=O)c3cccc(C(F)(F)F)c3)nc3cc(C)ccc32)C1 (racemic)

Outgoing:
6.39
7.38

----------
# Assay text: Clearance in Wistar rat at 3 mg/kg, iv by liquid chromatography-tandem mass spectrometry
# Format: ADME, organism-based
# Condition set: in vivo
Readout label: clearance (mL/min/kg)
One number for each entry, in mL/min/kg.

Incoming: Look up clearance: "Cc1cc(C(=O)Nc2nc3cccc(Cl)c3n2[C@@H]2CCCCN(C(=O)/C=C/CN(C)C)C2)ccn1"
Outgoing: 15.7
